assay: Acetic acid distribution coefficient study: solvents for recovering acetic acid from the permeate; type: physicochemical; conditions: solvent vs aqueous phase
reported_property: Acetic Acid Distribution Coefficients
Answers are plain numbers.

# example entries with known answers
Q: Acetic Acid Distribution Coefficients for CCCCCCCCCCCC [Dodecane] ?
Result: 0.13

Q: Acetic Acid Distribution Coefficients for CCCCCCCCO [Octanol] ?
Result: 0.45

Q: Acetic Acid Distribution Coefficients for CCCCCCCCN(CCCCCCCC)CCCCCCCC [Trioctylamine] ?
Result: 0.31

Q: Acetic Acid Distribution Coefficients for CCOC(C)=O [Ethyl acetate] ?
Result: 0.41

Q: Acetic Acid Distribution Coefficients for CCCC(=O)OCC [Ethyl butyrate] ?
Result: 0.42

Q: Acetic Acid Distribution Coefficients for CCCCCCCCCCCCCCCC [Hexadecane] ?
Result: 1.13

For the next question, use this molecule.
Q: Acetic Acid Distribution Coefficients for CC1CCCC(O)C1 (stereo not shown) [3-methylcyclohexanol] ?
Result: 1.26

----------
experiment: Acetic acid distribution coefficient study: solvents for recovering acetic acid from the permeate; type: physicochemical; conditions: solvent vs aqueous phase
For each of the molecules below, state its Acetic Acid Distribution Coefficients.
Give bare numbers.

# example entries with known answers
Q: Acetic Acid Distribution Coefficients for CCCCCCCCCCCO [Undecyl alcohol] ?
Result: 0.40

Q: Acetic Acid Distribution Coefficients for O=C1CCCCC1 [Cyclohexanone] ?
Result: 1.66

Q: Acetic Acid Distribution Coefficients for CCCCCCCCCC [Decane] ?
Result: 0.08

Q: Acetic Acid Distribution Coefficients for CCCCCCCC/C=C\CCCCCCCCO [Oleyl alcohol] ?
Result: 0.28

Q: Acetic Acid Distribution Coefficients for CCCCC(CC)CO (stereo not drawn) [2-ethyl-1-hexanol] ?
Result: 0.77

For the next question, use this molecule.
Q: Acetic Acid Distribution Coefficients for CCCCCCCCCCCCOC(C)=O [Dodecyl acetate] ?
Result: 0.15

----------
test: Acetic acid distribution coefficient study: solvents for recovering acetic acid from the permeate; assay type: physicochemical; details: aqueous phase after contact with the solvent
Returns: string. Value is 1 if measured Equilibrium Aqueous Acetic Acid Concentration is below 5 g/L, and -1 if it is greater than or equal to it.

Examples with answers:
Q: # check: Equilibrium Aqueous Acetic Acid Concentration < 5 g/L for CCCCCCCCO [Octanol]
Result: 1

Q: # check: Equilibrium Aqueous Acetic Acid Concentration < 5 g/L for CCCCCCCCCCCO [Undecyl alcohol]
Result: 1

Q: # check: Equilibrium Aqueous Acetic Acid Concentration < 5 g/L for O=C1CCCCC1 [Cyclohexanone]
Result: 1

Q: # check: Equilibrium Aqueous Acetic Acid Concentration < 5 g/L for CCCC(=O)OCC [Ethyl butyrate]
Result: 1

Q: # check: Equilibrium Aqueous Acetic Acid Concentration < 5 g/L for CCCCCCCCCCCC [Dodecane]
Result: 1

Q: # check: Equilibrium Aqueous Acetic Acid Concentration < 5 g/L for CCOC(C)=O [Ethyl acetate]
Result: 1

Continuing:
Q: # check: Equilibrium Aqueous Acetic Acid Concentration < 5 g/L for CCCCCCCCCC [Decane]
Result: -1

Q: # check: Equilibrium Aqueous Acetic Acid Concentration < 5 g/L for CCCCCCCCN(CCCCCCCC)CCCCCCCC [Trioctylamine]
Result: 1

Q: # check: Equilibrium Aqueous Acetic Acid Concentration < 5 g/L for CC1CCCC(O)C1 (stereo not shown) [3-methylcyclohexanol]
Result: 1

Q: # check: Equilibrium Aqueous Acetic Acid Concentration < 5 g/L for CCCCCCCCCCCCCCCC [Hexadecane]
Result: -1

Q: # check: Equilibrium Aqueous Acetic Acid Concentration < 5 g/L for CCCCC(CC)CO (stereo not shown) [2-ethyl-1-hexanol]
Result: 1

Q: # check: Equilibrium Aqueous Acetic Acid Concentration < 5 g/L for CCCCCCCCCCCCOC(C)=O [Dodecyl acetate]
Result: -1
